# targetUnderTest: Endothelial lipase (EL) (Homo sapiens (Human), UniProt Q9Y5X9)
# Sequence (Q9Y5X9 21-500): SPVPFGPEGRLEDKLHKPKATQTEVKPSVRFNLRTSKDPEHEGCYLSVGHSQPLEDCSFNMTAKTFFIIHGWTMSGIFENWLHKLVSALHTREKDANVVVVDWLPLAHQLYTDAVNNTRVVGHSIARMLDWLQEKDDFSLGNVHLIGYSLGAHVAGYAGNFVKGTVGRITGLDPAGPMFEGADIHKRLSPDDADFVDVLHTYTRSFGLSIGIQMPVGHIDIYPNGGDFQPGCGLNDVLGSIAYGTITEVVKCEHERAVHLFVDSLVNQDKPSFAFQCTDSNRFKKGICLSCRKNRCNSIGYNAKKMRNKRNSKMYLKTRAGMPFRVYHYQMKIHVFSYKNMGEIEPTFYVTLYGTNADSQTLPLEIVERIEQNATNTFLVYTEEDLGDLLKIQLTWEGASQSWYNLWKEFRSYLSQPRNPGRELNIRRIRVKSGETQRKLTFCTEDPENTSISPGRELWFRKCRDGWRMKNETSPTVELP
# procedureSummary: Endothelial lipase (EL) enzymatic assay with fluorescent substrate A10070 in DMPG vesicles
# Format: biochemical
# pIC50 per entry
Please note pIC50 is a logarithmic value: minus log10 of concentration in mol/L. Answer with that number alone.

Determine its reported pIC50: COCCS(=O)(=O)C(C(=O)NCC(=O)NC1CC1)c1nc2cc(F)c(-c3ccc4c(c3)C(=O)NC4)cc2s1 (stereo not shown) 8.30

Determine its reported pIC50: CS(=O)(=O)C(C(=O)NCC(=O)NC1CC1)c1nc2cc(F)c(-c3cccnc3C(F)(F)F)cc2s1 (stereo not shown) 7.19

Determine its reported pIC50: COc1ccc(OCCCS(=O)(=O)C(C(=O)NCC(=O)NC2CC2)c2nc3ccc(-c4ccc(F)nc4)cc3s2)cc1 (stereo not shown) 8.15

Determine its reported pIC50: COCCS(=O)(=O)C(C(=O)NCC(=O)NC1CC1)c1nc2cc(-c3cnc(F)cc3C)ccc2s1 (stereo not shown) 7.24

Determine its reported pIC50: COCCS(=O)(=O)C(C(=O)NCC(=O)NC1CC1)c1nc2cc(-c3ccc(Cl)nc3)ccc2s1 (stereo not shown) 7.60

Determine its reported pIC50: COCCS(=O)(=O)C(C(=O)NCC(=O)NC1CC1)c1nc2c(F)cc(-c3cnc(C4CC4)nc3)cc2s1 (stereo not shown) 7.10

Determine its reported pIC50: COCCS(=O)(=O)C(C(=O)NCC(=O)NC1CC1)c1nc2cc(F)c(-c3cccc(-n4cccn4)c3)cc2s1 (stereo not shown) 8.70

Determine its reported pIC50: CC(C)S(=O)(=O)C(C(=O)NCC(=O)NC1CC1)c1nc2cc(F)c(-c3ccc(C(=O)N4CCC4)cc3)cc2s1 (stereo not shown) 8.15

Determine its reported pIC50: CS(=O)(=O)C(C(=O)NCC(=O)NC1CC1)c1nc2cc(F)c(-c3ccc(-n4cccn4)cc3)cc2s1 (stereo not shown) 8.70

Determine its reported pIC50: COCCS(=O)(=O)C(C(=O)NCC(=O)NC1CC1)c1nc2cc(C(F)(F)F)c(-c3cccc(C(=O)N(C)C)c3)cc2s1 (stereo not shown) 7.96

Determine its reported pIC50: CS(=O)(=O)C(C(=O)NCC(=O)NC1CC1)c1nc2cc(F)c(-c3ccc(-n4ccccc4=O)cc3)cc2s1 (stereo not shown) 8.10

Determine its reported pIC50: COC(=O)N(C)c1ccc(-c2ccc3nc(C(C(=O)NCC(=O)NC4CC4)S(=O)(=O)CCC(F)(F)F)sc3c2)cc1 (stereo not shown) 8.22

Determine its reported pIC50: COCCS(=O)(=O)C(C(=O)NCC(=O)NC1CC1)c1nc2cc(F)c(-c3ccc(-c4nnc(C)o4)cc3)cc2s1 (stereo not shown) 8.40

Determine its reported pIC50: COCCS(=O)(=O)C(C(=O)NCC(=O)NCCOc1ccccc1)c1nc2ccc(-c3ccc(F)nc3)cc2s1 (stereo not shown) 9.00

Determine its reported pIC50: COCCS(=O)(=O)C(C(=O)NCC(=O)NC1(C)CC1)c1nc2ccc(-c3ccc(F)nc3)cc2s1 (stereo not shown) 7.82

Determine its reported pIC50: Cc1ncc(-c2ccc3sc(C(C(=O)NCC(=O)NC4CC4)S(C)(=O)=O)nc3c2F)cn1 (stereo not shown) 6.86
